test: RP, Waters ACQUITY UPLC HSS T3, 150 × 2.1 mm, 1.8 µm, 40 °C, 0.28 mL/min, estimated dead time 1.2 min; A: water + 0.1% formic acid, pH 3; B: methanol + 0.1% formic acid, pH 3; gradient (min/%B) 0/0 1/0 3/10 18/40 21/100 25.5/100 25.6/0 28/0
condition: stereoisomer not certain
This section presents molecules with their documented LC retention time values.
propertyLabel: LC retention time (min)

> print(dat)
                                   molecule      propertylabel  numericreadout
1  COc1cc(C=Cc2cc(O)cc(OC3OC(CO)C(O)C(O)C3O)c2)ccc1O (stereo not given)  LC retention time            17.6
2                        O=C(O)C=Cc1ccccc1O  LC retention time            19.7
3  O=c1c(O)c(-c2ccc(OC3OC(CO)C(O)C(O)C3O)c(O)c2)oc2cc(O)cc(O)c12 (stereo not given) [quercetin 4'-glucoside]  LC retention time            20.4
4  Oc1ccc(C2Oc3cc(O)cc(O)c3CC2O)cc1 (stereo not given) [epiafzelechin]  LC retention time            15.6
5  O=C(O)C1(O)CC(O)C(O)C(O)C1 (stereo not given)  LC retention time            1.58

----------
# maps each entry to its log10 LC retention time
test: RP, Waters ACQUITY UPLC HSS T3, 150 × 2.1 mm, 1.8 µm, 40 °C, 0.28 mL/min, estimated dead time 1.2 min; A: water + 0.1% formic acid, pH 3; B: methanol + 0.1% formic acid, pH 3; gradient (min/%B) 0/0 1/0 3/10 18/40 21/100 25.5/100 25.6/0 28/0
condition: stereoisomer not certain
propertyLabel: log10 LC retention time (log10 of the value in min)

compound	propertyLabel	numericReadout
COc1cc(C=CC(=O)OC(C(=O)O)C(O)C(=O)O)ccc1O (configuration not stated)	log10 LC retention time	1.07
O=c1cc[nH]c(=O)[nH]1	log10 LC retention time	0.37
Oc1ccc(C2c3c(O)cc(O)cc3C3C(c4ccc(O)cc4)c4c(O)cc(O)cc4C23)cc1 (configuration not stated)	log10 LC retention time	1.25
COc1cc2ccc(=O)oc2c(OC2OC(CO)C(O)C(O)C2O)c1O (configuration not stated)	log10 LC retention time	1.10
O=C(OC1Cc2c(O)cc(O)cc2OC1c1cc(O)c(O)c(O)c1)c1cc(O)c(O)c(O)c1 (configuration not stated) [epigallo-catechin gallate]	log10 LC retention time	1.10
COc1cc(-c2oc3cc(O)cc(O)c3c(=O)c2OC2OC(COC3OC(C)C(O)C(O)C3O)C(O)C(O)C2O)ccc1O (configuration not stated) [isorhamnetin 3-rutinoside]	log10 LC retention time	1.31
Oc1cc(O)c2c(c1)OC(c1cc(O)c(O)c(O)c1)C(O)C2 (configuration not stated)	log10 LC retention time	0.94
COc1cc(-c2oc3cc(O)cc(O)c3c(=O)c2OC2OC(CO)C(O)C(O)C2O)ccc1O (configuration not stated) [isorhamnetin 3-glucoside]	log10 LC retention time	1.31
O=C(OC1Cc2c(O)cc(O)cc2OC1c1ccc(O)c(O)c1)c1cc(O)c(O)c(O)c1 (configuration not stated) [epicatechin gallate]	log10 LC retention time	1.20
CC[C@H](C)[C@H](N)C(=O)O	log10 LC retention time	0.65
OCC1OC(Oc2cc(O)cc(C=Cc3ccc(O)cc3)c2)C(O)C(O)C1O (stereo not drawn) [cis-piceid]	log10 LC retention time	1.26
O=C(C=Cc1ccc(O)c(O)c1)OC(C(=O)O)C(O)C(=O)O (configuration not stated)	log10 LC retention time	0.93
Oc1cc(O)c2c(c1)OC(c1ccc(O)c(O)c1)C(O)C2 (configuration not stated) [epicatechin]	log10 LC retention time	1.08
O=C1c2c(O)cc(O)cc2OC(c2ccc(O)c(O)c2)C1O (configuration not stated)	log10 LC retention time	1.23
COC(=O)c1cc(O)c(O)c(O)c1 [methyl gallate]	log10 LC retention time	1.03
Oc1ccc(/C=C\c2cc(O)cc(O)c2)cc1 [cis-resveratrol]	log10 LC retention time	1.31
NC(CCC(=O)NC(CS)C(=O)NCC(=O)O)C(=O)O (configuration not stated)	log10 LC retention time	0.23

----------
test: RP, Waters ACQUITY UPLC HSS T3, 150 × 2.1 mm, 1.8 µm, 40 °C, 0.28 mL/min, estimated dead time 1.2 min; A: water + 0.1% formic acid, pH 3; B: methanol + 0.1% formic acid, pH 3; gradient (min/%B) 0/0 1/0 3/10 18/40 21/100 25.5/100 25.6/0 28/0
condition: stereoisomer not certain
Each entry below carries its recorded LC retention time.
propertyLabel: LC retention time (min)

> print(dat)
                                   molecule  numericreadout
1               N[C@@H](Cc1ccc(O)cc1)C(=O)O            4.28
2  COc1cc(-c2oc3cc(=O)cc4oc(O)c(C=[OH+])c(c2OC2OC(CO)C(O)C(O)C2O)c43)cc(OC)c1O (stereo not drawn)            19.3
3   CC(O)(CC(=O)O)C(=O)O (stereo not drawn)            4.02
4  CC1OC(OCC2OC(Oc3c(-c4ccc(O)cc4)oc4cc(O)cc(O)c4c3=O)C(O)C(O)C2O)C(O)C(O)C1O (stereo not drawn) [kaempferol 3-rutinoside]            20.5
5  COc1ccc(C2CC(=O)c3c(O)cc(O)cc3O2)cc1O (stereo not drawn)            21.1
6             O=C(O)[C@H](O)[C@@H](O)C(=O)O            1.46
7  O=C(O)c1ccc(O)cc1 [4-hydroxybenzoic acid]            10.6
8       O=c1[nH]c(=O)c2[nH]c(=O)[nH]c2[nH]1            3.44
